The reported measurements were obtained from patent US11472815B2.

Biological target: TLR1/2 (Homo sapiens (Human), UniProt O60603+Q15399)
Sequence (Q15399 25-786): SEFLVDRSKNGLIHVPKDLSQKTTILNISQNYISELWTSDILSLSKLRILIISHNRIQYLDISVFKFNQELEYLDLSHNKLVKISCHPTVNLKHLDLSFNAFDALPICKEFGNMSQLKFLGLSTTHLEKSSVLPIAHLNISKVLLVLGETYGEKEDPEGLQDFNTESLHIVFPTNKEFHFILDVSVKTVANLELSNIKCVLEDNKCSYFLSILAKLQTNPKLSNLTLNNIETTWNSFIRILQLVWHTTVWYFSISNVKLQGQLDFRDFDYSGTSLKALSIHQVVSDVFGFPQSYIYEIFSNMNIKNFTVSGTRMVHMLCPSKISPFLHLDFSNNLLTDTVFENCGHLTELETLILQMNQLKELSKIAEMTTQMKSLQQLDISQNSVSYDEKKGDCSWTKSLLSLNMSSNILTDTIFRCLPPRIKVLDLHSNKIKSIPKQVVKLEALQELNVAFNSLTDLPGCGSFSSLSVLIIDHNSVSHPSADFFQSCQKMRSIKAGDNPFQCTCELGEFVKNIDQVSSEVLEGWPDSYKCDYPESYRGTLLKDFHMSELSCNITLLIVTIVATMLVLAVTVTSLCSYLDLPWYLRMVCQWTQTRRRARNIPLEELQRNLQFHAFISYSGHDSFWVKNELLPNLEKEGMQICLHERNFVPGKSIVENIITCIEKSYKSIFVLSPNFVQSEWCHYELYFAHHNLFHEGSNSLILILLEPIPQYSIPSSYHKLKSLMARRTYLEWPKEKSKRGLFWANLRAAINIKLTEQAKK
Sequence (O60603 19-784): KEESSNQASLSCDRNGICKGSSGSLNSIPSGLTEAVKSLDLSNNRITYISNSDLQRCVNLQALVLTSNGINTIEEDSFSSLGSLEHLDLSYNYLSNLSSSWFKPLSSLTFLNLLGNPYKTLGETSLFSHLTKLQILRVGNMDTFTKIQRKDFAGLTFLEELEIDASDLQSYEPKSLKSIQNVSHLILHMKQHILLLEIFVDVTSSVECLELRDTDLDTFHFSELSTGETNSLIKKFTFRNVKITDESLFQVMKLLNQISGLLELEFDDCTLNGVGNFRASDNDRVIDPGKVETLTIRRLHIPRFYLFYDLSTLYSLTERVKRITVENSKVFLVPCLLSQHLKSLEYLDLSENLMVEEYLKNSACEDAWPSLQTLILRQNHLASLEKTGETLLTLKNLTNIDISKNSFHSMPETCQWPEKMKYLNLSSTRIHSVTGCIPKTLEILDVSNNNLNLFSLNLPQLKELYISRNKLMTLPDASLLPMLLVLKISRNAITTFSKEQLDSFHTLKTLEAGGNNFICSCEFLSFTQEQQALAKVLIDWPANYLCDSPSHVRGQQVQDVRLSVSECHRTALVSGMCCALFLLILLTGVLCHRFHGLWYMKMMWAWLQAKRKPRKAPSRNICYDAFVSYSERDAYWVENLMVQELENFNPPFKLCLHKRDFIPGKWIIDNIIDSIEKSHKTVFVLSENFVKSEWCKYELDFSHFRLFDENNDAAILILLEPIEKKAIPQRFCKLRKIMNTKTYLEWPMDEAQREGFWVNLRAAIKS
Assay: Detection of TLR1/2 activation activity (SEAP signal) using TLR1/2 HEK BLUE cells
Details: HEK BLUE TLR1/2 cells, 24 hours, SEAP read at 620 nm; highest concentration 100 μM; [‡] highest SEAP signal less than 50% of the activation value of compound 22
Method: TLR1/2 activation activity was detected using TLR1/2 HEK BLUE cells. TLR1/2 HEK BLUE cells were cultured in DMEM medium containing 10% fetal bovine serum, 1% penicillin and streptomycin, and incubated in a 37° C. cell incubator containing 5% CO2. HEK BLUE TLR1/2 cells were spread in a 384-well plate at 20,000 cells/well, cultured at 37° C., 5% CO2 for 24 hours, 25 μL per well. When the cells grew well, 100 μM compound and doubling-diluted for 11 concentration gradients. […]
measured.property: log10 EC50 (log10 of the value in nM)
Response schema: value (number) is log10 of EC50 in units of nM.

Known results for compounds:
Challenge: Which log10 EC50 value belongs to CNc1ccc(S(C)(=O)=O)cc1-n1cnc(-c2ccc(C(F)(F)F)cc2O)c1 [Compound 23] ?
Response given: 0.71

Challenge: State the recorded log10 EC50 for this entry: CNc1ccc([N+](=O)[O-])cc1-n1cnc(-c2ccc(C(F)(F)F)cc2OCCNC(=O)CCCC[C@@H]2SC[C@@H]3NC(=O)N[C@@H]32)c1 [Compound 44]
Response given: 2.88

Challenge: Item under review: CNc1ccc([N+](=O)[O-])cc1-n1cnc(-c2ccc(OC(F)(F)F)cc2O)c1 [Compound 21] . Reported log10 EC50?
Response given: 1.40

Challenge: I am curious: what log10 EC50 value has been reported for CNc1ccc([N+](=O)[O-])cc1-n1cnc(-c2ccc(C(F)(F)F)cc2OC(=O)c2ccccc2)c1 [Compound 38] ?
Response given: 1.23

Please look at the following compound next.
Challenge: Please report the recorded log10 EC50 for CCCCCCCC(=O)Oc1cc(C(F)(F)F)ccc1-c1cn(-c2cc([N+](=O)[O-])ccc2NC)cn1 [Compound 36] .
Response given: 1.75
